# STUDY SYSTEM: Delta-type opioid receptor (Rattus norvegicus)
# Sequence (P33533 whole entry): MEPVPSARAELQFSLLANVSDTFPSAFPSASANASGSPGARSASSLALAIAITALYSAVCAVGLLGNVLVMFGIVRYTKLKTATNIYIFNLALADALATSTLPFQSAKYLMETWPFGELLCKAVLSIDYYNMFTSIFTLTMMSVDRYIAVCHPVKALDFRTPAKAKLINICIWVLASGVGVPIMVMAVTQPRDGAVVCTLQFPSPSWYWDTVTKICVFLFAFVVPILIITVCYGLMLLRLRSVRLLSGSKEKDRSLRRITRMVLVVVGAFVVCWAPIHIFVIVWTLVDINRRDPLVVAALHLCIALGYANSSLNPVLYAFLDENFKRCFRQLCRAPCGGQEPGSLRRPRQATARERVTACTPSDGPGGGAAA
# EXPERIMENT NOTES: Binding affinity against opioid receptor delta in rats by displacing [3H]DPDPE

COMPOUND	Ki [nM]
CC(C)[C@H](NC(=O)[C@H](CCC(=O)O)NC(=O)[C@H](Cc1ccc([N+](=O)[O-])cc1)NC(=O)[C@@H](C)NC(=O)[C@@H](N)Cc1ccc(O)cc1)C(=O)N[C@H](C(=O)NCC(N)=O)C(C)C	101
CC(C)[C@H](NC(=O)[C@H](CC(=O)O)NC(=O)[C@H](Cc1ccc(F)cc1)NC(=O)[C@@H](C)NC(=O)[C@@H](N)Cc1ccc(O)cc1)C(=O)N[C@H](C(=O)NCC(N)=O)C(C)C	0.51
CC(C)[C@H](NC(=O)[C@H](CC(=O)O)NC(=O)[C@H](Cc1ccc(Br)cc1)NC(=O)[C@@H](C)NC(=O)[C@@H](N)Cc1ccc(O)cc1)C(=O)N[C@H](C(=O)NCC(N)=O)C(C)C	2.39
CC(C)[C@H](NC(=O)[C@H](CC(=O)O)NC(=O)[C@H](Cc1ccc(Cl)cc1)NC(=O)[C@@H](C)NC(=O)[C@@H](N)Cc1ccc(O)cc1)C(=O)N[C@H](C(=O)NCC(N)=O)C(C)C	1.58
CC(C)[C@H](NC(=O)[C@H](CCC(=O)O)NC(=O)[C@H](Cc1ccc(N)cc1)NC(=O)[C@@H](C)NC(=O)[C@@H](N)Cc1ccc(O)cc1)C(=O)N[C@H](C(=O)NCC(N)=O)C(C)C	48.1
CC(C)[C@H](NC(=O)[C@H](CC(=O)O)NC(=O)[C@H](Cc1ccccc1)NC(=O)[C@@H](C)NC(=O)[C@@H](N)Cc1ccc(O)cc1)C(=O)N[C@H](C(=O)NCC(N)=O)C(C)C [DELTORPHIN C]	0.24
CC(C)[C@H](NC(=O)[C@H](CCC(=O)O)NC(=O)[C@H](Cc1ccccc1)NC(=O)[C@H](C)NC(=O)[C@@H](N)Cc1ccc(O)cc1)C(=O)N[C@H](C(=O)NCC(=O)O)C(C)C [DELTORPHINE II]	0.12
